# relative binding activity (% of WT) listing for each entry below
Target: T1, EGFI-Cr1 N37R (human)
T1 construct: not shown: The fused constant region of human immunoglobulin gamma 1 heavy chain (Cr1)
T1 chain: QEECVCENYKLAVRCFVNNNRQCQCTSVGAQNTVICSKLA
Assay: direct ELISA, coated EGFI-Cr1 fusion, 0.1 µg/ml antibody
Give the number; % is assumed, so skip it.

binder	relative binding activity (% of WT) [%]
murine monoclonal antibody 4D2 (antibody, mouse IgG1, V domains shown, Mouse IgG1, kappa, from hybridoma; also called m338-4D2.20) VH: EVQLVESGGDLVKPGGSLKLSCAASGFAFDSYGMSWVRQTPGKRLEWVATISSGGYYTYYQDSVKGRFTTSRDNAKNTLDLQMSSLKSEDSAIYYCARRGNYDVDYYAMDYWGQGTSVTVSS VL: DVVMTQTPLSLPVSLGDQASISCRSSQSLVHSNGNTYLHWYLQKPGQSPKLLIYKVSNRFSGVPDRFSGSGSGTDFTLRISRVEAEDLGVYFCSQSTHVPPWTFGGGTKLEIKR	64

Return reported relative binding activity (% of WT); argument: murine monoclonal antibody 2D11 (antibody, mouse IgG1, V domains shown, Mouse IgG1, kappa, from hybridoma; also called m322-2D11.19) VH: QIQLVQSGPELKKPGETVKISCKASGYTFTNYGMNWVKQAPGKGLKWMGWINTNTGEATYVEEFKGRVVFSLETSASTAYLQINNLKNEDTATYFCARIGYVWYFDVWGAGTTVTVSS VL: DIVMSQSPSSLAVSAGEKVTMSCKSSQSLFSSRTRKNYLAWYQQKPGQSPKLLIYWASTRESGVPDRFTGSGSGTDFTLTINSVQAEDLAVYYCKHSNNLFTFGSGTKLEIKR
94
